Biological target: Cannabinoid receptor 1 (Homo sapiens); further: in other assays of this panel Not Active means under 50% inhibition at 10 µM
Sequence (P21554 whole entry): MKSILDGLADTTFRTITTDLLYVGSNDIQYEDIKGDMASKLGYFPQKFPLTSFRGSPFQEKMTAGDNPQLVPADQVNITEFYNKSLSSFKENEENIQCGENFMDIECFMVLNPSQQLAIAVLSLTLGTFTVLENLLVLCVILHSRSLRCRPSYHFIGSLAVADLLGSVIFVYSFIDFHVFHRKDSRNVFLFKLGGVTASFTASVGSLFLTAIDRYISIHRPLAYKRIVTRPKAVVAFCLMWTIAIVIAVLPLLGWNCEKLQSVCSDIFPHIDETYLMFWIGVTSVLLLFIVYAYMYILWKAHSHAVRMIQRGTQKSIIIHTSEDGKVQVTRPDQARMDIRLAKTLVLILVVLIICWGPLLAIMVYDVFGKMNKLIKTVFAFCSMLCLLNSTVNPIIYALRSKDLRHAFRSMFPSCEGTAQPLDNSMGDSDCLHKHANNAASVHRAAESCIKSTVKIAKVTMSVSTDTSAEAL
Format: cell membranes, Chem-1, Membrane
Conditions: chem-1

compound	assay.target	IC50
CO[C@H]1/C=C/O[C@@]2(C)Oc3c(C)c(O)c4c(O)c(c(/C=N/N5CCN(C6CCCC6)CC5)c(O)c4c3C2=O)NC(=O)/C(C)=C\C=C\[C@H](C)[C@H](O)[C@@H](C)[C@@H](O)[C@@H](C)[C@H](OC(C)=O)[C@@H]1C	Cannabinoid receptor 1 (Homo sapiens)	Not Active
O=C1C(CC[S+]([O-])c2ccccc2)C(=O)N(c2ccccc2)N1c1ccccc1 (stereo not drawn)	Cannabinoid receptor 1 (Homo sapiens)	Not Active
COc1c2occc2cc2ccc(=O)oc12	Cannabinoid receptor 1 (Homo sapiens)	Not Active

----------
Target: Cytochrome P450 2C9 (Homo sapiens, UniProt P11712); further: in other assays of this panel Not Active means under 50% inhibition at 10 µM
Sequence (P11712 whole entry): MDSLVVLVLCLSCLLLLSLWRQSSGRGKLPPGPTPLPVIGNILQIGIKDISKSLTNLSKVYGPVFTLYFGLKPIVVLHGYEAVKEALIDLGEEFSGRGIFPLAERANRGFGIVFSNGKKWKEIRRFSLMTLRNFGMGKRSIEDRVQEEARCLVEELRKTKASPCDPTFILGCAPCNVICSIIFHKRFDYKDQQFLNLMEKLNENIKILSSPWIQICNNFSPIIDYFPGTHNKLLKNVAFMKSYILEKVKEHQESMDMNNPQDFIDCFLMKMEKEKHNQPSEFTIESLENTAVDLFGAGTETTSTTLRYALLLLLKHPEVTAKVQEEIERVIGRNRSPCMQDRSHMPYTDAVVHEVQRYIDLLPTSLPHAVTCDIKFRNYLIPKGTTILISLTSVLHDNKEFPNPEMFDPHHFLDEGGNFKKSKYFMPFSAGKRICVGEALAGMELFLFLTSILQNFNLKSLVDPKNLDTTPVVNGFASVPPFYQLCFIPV
quantity.kind: log10 IC50 (log10 of the value in µM)

> print(dat)
                            molecule.smiles  reading
1       O=C(Nc1ccc(Br)cc1)c1cc(Br)cc(Br)c1O     0.30
2  CC(=O)Oc1ccc(C(c2ccc(OC(C)=O)cc2)c2ccccn2)cc1     1.00
3    COC1=C(OC)C(=O)C(CCCCCCCCCCO)=C(C)C1=O     0.70
4  O=C(c1ccccc1C(F)(F)F)N1CCC(Cc2ccccc2)CC1     0.30
5  O=C(N/N=C/c1ccc([N+](=O)[O-])o1)c1cc([N+](=O)[O-])cc([N+](=O)[O-])c1O     0.85
6  NC(=O)N1C(=O)/C(=C(\O)c2cccs2)c2cc(Cl)ccc21    -0.15

----------
Test: DRUGMATRIX: Sodium/nucleoside co-transporter radioligand binding (ligand: nitrobenzylthioinosine)
Assay type: cell membranes, Cavia porcellus, Dunkin-Hartley, Cerebral cortex, Membrane
Conditions: Not Active = under 50% inhibition at 10 µM
quantity.kind: Ki

> print(dat)
                                   molecule  quantity.kind     reading
1  C[n+]1ccc(-c2cc[n+](C)cc2)cc1.[Cl-].[Cl-] [PARAQUAT DICHLORIDE]             Ki  Not Active
2  CC(C)NCC(O)COc1cccc2[nH]ccc12 (stereo not drawn)             Ki  Not Active
3  C[C@@H]1O[C@@H](O[C@@H]2C=C3CC[C@@H]4[C@H](CC[C@]5(C)[C@@H](c6ccc(=O)oc6)CC[C@]45O)[C@@]3(C)CC2)[C@H](O)[C@H](O)[C@H]1O             Ki  Not Active
4  O=C(N/N=C/c1ccc([N+](=O)[O-])o1)c1cc([N+](=O)[O-])cc([N+](=O)[O-])c1O             Ki  Not Active
5           O=C1O[C@H]([C@@H](O)CO)C(O)=C1O             Ki  Not Active
6      N#Cc1ccc(C(c2ccc(C#N)cc2)n2cncn2)cc1             Ki  Not Active
7  CC(C(=O)O)c1ccc2oc(-c3ccc(Cl)cc3)nc2c1 (stereo not drawn)             Ki  Not Active
8                       CC(C)=CCC/C(C)=C/CO             Ki  Not Active
